Task for the reader: assign each of the following compounds its reported solubility at 18 h.
# ASSAY_PROTOCOL: Aqueous solubility, modified procedure (saturated solutions, RP-HPLC)
# Format: physicochemical
# ASSAY_CONTEXT: pH 7, aqueous buffer, thermodynamic from solid, 100 mM phosphate buffer, read-out: Aqueous Solubility pH~7

Entry COc1c(N2CCC/C(=C(\F)CNC(=O)CNC(=O)[C@@H](N)CCC(=O)O)C2)c(F)cc2c(=O)c(C(=O)O)cn(C3CC3)c12.Cl [Compound 16] ; solubility at 18 h = > 3360 µg/mL

Recorded result, COc1c(N2CCC/C(=C(\F)CNC(=O)[C@@H]3CCCN3C(=O)[C@@H](N)CCCCN)C2)c(F)cc2c(=O)c(C(=O)O)cn(C3CC3)c12.Cl.Cl [Compound 15] , solubility at 18 h: > 11100 µg/mL

Entry under test: COc1c(N2CCC/C(=C(\F)CNC(=O)[C@@H](N)CN(C)C)C2)c(F)cc2c(=O)c(C(=O)O)cn(C3CC3)c12.Cl.Cl [Compound 14] . Its solubility at 18 h was > 3000 µg/mL

====

# ASSAY_PROTOCOL: Rat pharmacokinetics
# Type: in vivo, Sprague-Dawley rats
# ASSAY_CONTEXT: Sprague-Dawley, plasma, iv, male rats, 2 mg/kg i.v., analyte: the administered compound itself
OBSERVED_PROPERTY: half-life (h)
Reply with just the number (in h).

For COc1c(N2CCC/C(=C(\F)CN)C2)c(F)cc2c(=O)c(C(=O)O)cn(C3CC3)c12 the compound record lists half-life as 1.5

====

# ASSAY_PROTOCOL: Clarity of test compound solutions at […] (aqueous solubility)
# ASSAY_CONTEXT: pH 7.8, aqueous buffer, thermodynamic from solid
OBSERVED_PROPERTY: solubility (µg/mL)
Numeric only. Scale: µg/mL

Lab note: CCOP(=O)(NCC(F)=C1CCCN(c2c(F)cc3c(=O)c(C(=O)[O-])cn(C4CC4)c3c2OC)C1)OCC.[Na+] gave solubility of 1800

====

# System: Staphylococcus aureus (OC8525), a methicillin-resistant strain (MRSA)
# ASSAY_PROTOCOL: In vivo efficacy in a mouse systemic infection model
# ASSAY_CONTEXT: Staphylococcus aureus, iv, 72 h; Swiss Webster mice infected i.p. with MRSA, i.v. dose 1 h later, 3 day survival; normalized to parent content; read-out: ED50 i.v.
Threshold 1 mg/kg: ED50 strictly smaller gives y, otherwise n.

Qu. Please determine if COc1c(N2CCC/C(=C(\F)CNC(=O)[C@H](C)NC(=O)[C@H](C)N)C2)c(F)cc2c(=O)c(C(=O)O)cn(C3CC3)c12.Cl [Compound 2] is below 1 mg/kg in terms of ED50.
Ans. n

Qu. In the record for COc1c(N2CCC/C(=C(\F)CNC(=O)[C@@H]3CCCN3C(=O)[C@@H](N)CCCCN)C2)c(F)cc2c(=O)c(C(=O)O)cn(C3CC3)c12.Cl.Cl [Compound 15] , is ED50 less than 1 mg/kg?
Ans. n

Qu. Just wondering, is ED50 of COc1c(N2CCC/C(=C(\F)CNC(=O)[C@@H](N)Cc3ccccc3)C2)c(F)cc2c(=O)c(C(=O)O)cn(C3CC3)c12.Cl [Compound 3] below 1 mg/kg?
Ans. n

Qu. Strictly below 1 mg/kg: is that where ED50 of COc1c(N2CCC/C(=C(\F)CNC(=O)[C@H](C)N)C2)c(F)cc2c(=O)c(C(=O)O)cn(C3CC3)c12.Cl [Compound 4] sits?
Ans. y

Qu. # strict comparison: is reported ED50 < 1 mg/kg? input = COc1c(N2CCC/C(=C(\F)CNC(=O)[C@@H](N)C(C)C)C2)c(F)cc2c(=O)c(C(=O)O)cn(C3CC3)c12.Cl [Compound 1]
Ans. n

Qu. Does CCOC(=O)c1cn(C2CC2)c2c(OC)c(N3CCC/C(=C(\F)CN)C3)c(F)cc2c1=O.Cl [Compound 11] have ED50 strictly under 1 mg/kg?
Ans. n
